Tested on: goosegrass (Eleusine indica)
EXPERIMENT: Test A1 postemergence, goosegrass
Type: in vivo
RUN PARAMETERS: Postemergence, 125 g ai/ha; 0 to 100 scale
Description: […]
MEASURED ATTRIBUTE: Plant response rating, Goosegrass
Respond using a number only.

Return reported Plant response rating, Goosegrass; argument: `Cc1cc(Br)c(NS(=O)(=O)C(F)(F)F)cc1C1=NOC2(CCCC2)C1`
30

Return reported Plant response rating, Goosegrass; argument: CCC1ON=C(c2cc(N(C(=O)OCC(C)C)S(=O)(=O)C(F)(F)F)c(C)cc2C)C1CC (centres unmarked)
30

Return reported Plant response rating, Goosegrass; argument: Cc1cc(C)c(N(S(=O)(=O)C(F)(F)F)S(=O)(=O)C(F)(F)F)cc1C1=NOC2COCC12 (centres unmarked)
60

Return reported Plant response rating, Goosegrass; argument: Cc1cc(C)c(C2=NOC3CCCCCC23)cc1NS(=O)(=O)C(F)(F)F (centres unmarked)
80

Return reported Plant response rating, Goosegrass; argument: CCCCOC1CC(c2cc(NS(=O)(=O)C(F)(F)F)c(C)cc2C)=NO1 (centres unmarked)
50

Return reported Plant response rating, Goosegrass; argument: `Cc1c(C(=O)N2CCC(C)CC2)cc(N(COC(=O)C(C)(C)C)S(=O)(=O)C(F)(F)F)c(C)c1C`
0

Return reported Plant response rating, Goosegrass; argument: Cc1ccc(C2=NOC3CCCC23)cc1NS(=O)(=O)C(F)(F)F (centres unmarked)
0

Return reported Plant response rating, Goosegrass; argument: Cc1cc(C)c(N(COC(=O)OC(C)(C)C)S(=O)(=O)C(F)(F)F)cc1C1=NOC2CCCC12 (centres unmarked)
90

Return reported Plant response rating, Goosegrass; argument: Cc1cc(C)c(C2=NOC(OCC(C)C)C2)cc1NS(=O)(=O)C(F)(F)F (centres unmarked)
50

Return reported Plant response rating, Goosegrass; argument: COC1CCCN(C(=O)c2cc(NS(=O)(=O)C(F)(F)F)c(Cl)c(F)c2C)C1 (centres unmarked)
0

Return reported Plant response rating, Goosegrass; argument: Cc1cc(C)c(C2=NOC3OCCCC23)cc1NS(=O)(=O)C(F)(F)F (centres unmarked)
80

Return reported Plant response rating, Goosegrass; argument: Cc1cc(C)c(N(COC(=O)OC(C)C)S(=O)(=O)C(F)(F)F)cc1C1=NOC2CCCC12 (centres unmarked)
80

Return reported Plant response rating, Goosegrass; argument: `Cc1c(C(=O)N2CCCCC2)cc(N(COC(=O)C(C)(C)C)S(=O)(=O)C(F)(F)F)c(C)c1C`
30

Return reported Plant response rating, Goosegrass; argument: `Cc1cc(C2CC2)c(NS(=O)(=O)C(F)(F)F)cc1C1=NOC2(CCCC2)C1`
0
